Taken from patent US7135466B2.

# TESTED ON: PDGF-Ra (Homo sapiens)
# Construct: host or cells: G-292 human osteosarcoma cells
# Sequence (P16234 24-1089): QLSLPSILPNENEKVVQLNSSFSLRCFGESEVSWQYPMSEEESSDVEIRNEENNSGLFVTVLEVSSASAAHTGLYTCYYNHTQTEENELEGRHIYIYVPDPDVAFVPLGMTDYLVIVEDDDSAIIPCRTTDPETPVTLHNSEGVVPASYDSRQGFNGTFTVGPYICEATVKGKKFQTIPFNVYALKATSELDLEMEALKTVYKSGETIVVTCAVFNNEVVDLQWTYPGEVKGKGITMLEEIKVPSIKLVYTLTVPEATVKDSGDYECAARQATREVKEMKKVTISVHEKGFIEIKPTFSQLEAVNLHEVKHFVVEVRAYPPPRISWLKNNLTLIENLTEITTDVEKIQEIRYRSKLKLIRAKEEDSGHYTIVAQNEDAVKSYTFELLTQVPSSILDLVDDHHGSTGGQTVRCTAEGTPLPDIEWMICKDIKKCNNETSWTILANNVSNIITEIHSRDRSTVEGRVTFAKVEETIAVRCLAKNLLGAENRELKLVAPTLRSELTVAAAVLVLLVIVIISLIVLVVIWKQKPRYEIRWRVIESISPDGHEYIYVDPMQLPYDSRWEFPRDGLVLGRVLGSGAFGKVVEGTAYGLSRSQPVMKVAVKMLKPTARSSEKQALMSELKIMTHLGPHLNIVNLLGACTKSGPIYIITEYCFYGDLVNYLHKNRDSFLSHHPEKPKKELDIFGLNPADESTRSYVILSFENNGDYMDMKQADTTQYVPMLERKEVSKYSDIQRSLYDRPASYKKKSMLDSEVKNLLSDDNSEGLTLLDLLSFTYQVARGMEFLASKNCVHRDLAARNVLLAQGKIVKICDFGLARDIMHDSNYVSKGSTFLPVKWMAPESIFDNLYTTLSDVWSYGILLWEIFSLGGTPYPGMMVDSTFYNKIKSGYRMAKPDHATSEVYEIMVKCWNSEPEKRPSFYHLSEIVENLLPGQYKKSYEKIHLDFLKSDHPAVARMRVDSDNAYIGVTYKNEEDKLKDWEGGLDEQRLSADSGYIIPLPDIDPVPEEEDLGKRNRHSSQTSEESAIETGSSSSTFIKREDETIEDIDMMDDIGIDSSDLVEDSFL
# PROCEDURE TEXT: Inhibitory activity against PDGF-Ra phosphorylation by PDGF-AA stimulation using G292
# Format: cell-based
# CONDITION SUMMARY: > means inhibition at indicated concentration not more than 50%, < and << not less than 50%; read-out: PDGF (E) IC50
ASSAY METRIC: IC50 (nM)

[
  {
    "COMPOUND": "COc1cc2ncnc(Oc3ccc(NC(=O)NC4CCN(Cc5ccccc5Cl)C4)c([N+](=O)[O-])c3)c2cc1OC (stereo not shown)",
    "TESTED ON": "PDGF-Ra (Homo sapiens)",
    "ASSAY METRIC": "IC50",
    "MEAS VALUE": 14
  },
  {
    "COMPOUND": "CCN(CC)CCNC(=O)Nc1ccc(Oc2ccnc3cc(OC)c(OC)cc23)cc1Cl",
    "TESTED ON": "PDGF-Ra (Homo sapiens)",
    "ASSAY METRIC": "IC50",
    "MEAS VALUE": 32
  }
]

(A) COc1cc2nccc(Oc3ccc(NC(=O)NCCN(C(C)C)C(C)C)c(C)c3C)c2cc1OC
(B) COc1ccccc1COC(=O)N(C)c1ccc(Oc2ncnc3cc(OC)c(OC)cc23)cc1Cl
Ask: Looking at A and B , which one comes out lower in IC50 terms? Pick one; state its label.
Result: B
(B: 17 nM, A: 43 nM)

---

# TESTED ON: c-kit (Homo sapiens, UniProt P10721)
# Construct: MO7e (human megakaryocytic leukemia cell line) which had been arrested for 20 hr; endogenous in cells; host or cells: MO7e human megakaryocytic leukemia cell line
# Sequence (P10721 26-976): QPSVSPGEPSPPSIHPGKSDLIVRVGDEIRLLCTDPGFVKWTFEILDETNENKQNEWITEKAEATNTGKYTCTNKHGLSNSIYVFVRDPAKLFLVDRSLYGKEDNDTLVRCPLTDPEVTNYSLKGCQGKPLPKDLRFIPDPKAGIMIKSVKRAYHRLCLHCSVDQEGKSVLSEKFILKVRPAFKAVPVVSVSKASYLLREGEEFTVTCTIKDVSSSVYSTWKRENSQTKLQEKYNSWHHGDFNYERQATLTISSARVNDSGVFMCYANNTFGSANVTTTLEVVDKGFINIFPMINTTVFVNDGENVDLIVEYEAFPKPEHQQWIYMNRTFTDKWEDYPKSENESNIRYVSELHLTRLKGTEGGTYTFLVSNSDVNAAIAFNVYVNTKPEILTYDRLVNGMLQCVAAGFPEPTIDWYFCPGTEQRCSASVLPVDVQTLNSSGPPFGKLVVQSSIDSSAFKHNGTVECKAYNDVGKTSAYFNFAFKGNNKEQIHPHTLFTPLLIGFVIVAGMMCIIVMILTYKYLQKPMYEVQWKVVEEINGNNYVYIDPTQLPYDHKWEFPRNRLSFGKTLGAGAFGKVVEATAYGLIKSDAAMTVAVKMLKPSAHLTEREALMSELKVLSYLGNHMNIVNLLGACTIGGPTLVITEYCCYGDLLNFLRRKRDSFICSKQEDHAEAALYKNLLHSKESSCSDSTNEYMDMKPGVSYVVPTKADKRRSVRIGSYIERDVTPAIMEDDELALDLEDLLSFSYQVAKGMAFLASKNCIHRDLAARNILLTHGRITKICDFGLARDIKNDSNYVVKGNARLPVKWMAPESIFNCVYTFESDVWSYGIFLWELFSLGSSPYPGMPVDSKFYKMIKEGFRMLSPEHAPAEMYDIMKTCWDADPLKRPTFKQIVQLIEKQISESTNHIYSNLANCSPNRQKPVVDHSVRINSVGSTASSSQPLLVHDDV
# PROCEDURE TEXT: Inhibitory activity against c-kit autophosphorylation (MO7e cells, h-SCF)
# Type: cell-based
# CONDITION SUMMARY: MO7e cells, 50 ng/ml h-SCF; read-out: c-kit IC50
ASSAY METRIC: IC50 (nM)

[
  {
    "MOLECULE": "CCN(CC)CCNC(=O)Nc1ccc(Oc2ccnc3cc(OC)c(OC)cc23)cc1 [Example 622]",
    "TESTED ON": "c-kit (Homo sapiens, UniProt P10721)",
    "VALUE UNIT": "nM",
    "IC50": 355
  },
  {
    "MOLECULE": "CCN(CC)CCNC(=S)Nc1ccc(Oc2ccnc3cc(OC)c(OC)cc23)c(C)c1C [Example 511]",
    "TESTED ON": "c-kit (Homo sapiens, UniProt P10721)",
    "VALUE UNIT": "nM",
    "IC50": 663
  },
  {
    "MOLECULE": "COc1cc2nccc(Oc3ccc(OCCCOc4ccccc4C)cc3)c2cc1OC [Example 792]",
    "TESTED ON": "c-kit (Homo sapiens, UniProt P10721)",
    "VALUE UNIT": "nM",
    "IC50": 301
  },
  {
    "MOLECULE": "COc1cc2nccc(Oc3ccc(OCC(=O)Nc4ccccc4C)cc3)c2cc1OC [Example 782]",
    "TESTED ON": "c-kit (Homo sapiens, UniProt P10721)",
    "VALUE UNIT": "nM",
    "IC50": 365
  },
  {
    "MOLECULE": "C#CCC(CC)OC(=O)Nc1ccc(Oc2ccnc3cc(OC)c(OC)cc23)c(C)c1C (stereo not drawn) [Example 410]",
    "TESTED ON": "c-kit (Homo sapiens, UniProt P10721)",
    "VALUE UNIT": "nM",
    "IC50": 79
  },
  {
    "MOLECULE": "COc1cc2nccc(Oc3ccc(NC(=S)NCCCN4CCOCC4)c(C)c3C)c2cc1OC [Example 548]",
    "TESTED ON": "c-kit (Homo sapiens, UniProt P10721)",
    "VALUE UNIT": "nM",
    "IC50": 268
  }
]

(1) COc1cc2nccc(Oc3ccc(NC(=O)OC4CCCN(C)C4)c(C)c3C)c2cc1OC (stereo not drawn) [Example 464]
(2) C#CCC(CC)OC(=O)Nc1cc(C)c(Oc2ccnc3cc(OC)c(OC)cc23)cc1C (stereo not drawn) [Example 409]
(3) COc1cc2nccc(Oc3ccc(NC(=O)NCCN4CCCC4)cc3)c2cc1OC [Example 618]
(4) COc1ccccc1NCCOc1ccc(Oc2ccnc3cc(OC)c(OC)cc23)cc1 [Example 777]
Ask: Ranking field: IC50; order: falling. Rank them, then answer with their labels in that order.
Result: 3, 2, 1, 4

---

# TESTED ON: c-kit (Homo sapiens)
# Construct: MO7e (human megakaryocytic leukemia cell line) which had been arrested for 20 hr; endogenous in cells; host or cells: MO7e human megakaryocytic leukemia cell line
# PROCEDURE TEXT: Inhibitory activity against c-kit autophosphorylation (MO7e cells, h-SCF)
# Type: cell-based
# CONDITION SUMMARY: MO7e cells, h-SCF stimulation; read-out: c-kit IC50
ASSAY METRIC: IC50 (nM)

[
  {
    "COMPOUND": "COc1ccccc1CCC(=O)NC(=S)Nc1ccc(Oc2ncnc3cc(OC)c(OC)cc23)cc1 [Example 1141]",
    "ASSAY METRIC": "IC50",
    "MEAS VALUE": 416
  },
  {
    "COMPOUND": "COc1cc2nccc(Oc3ccc(NC(=S)NC(=O)COCc4ccccc4)c(F)c3)c2cc1OC [Example 1031]",
    "ASSAY METRIC": "IC50",
    "MEAS VALUE": 254
  },
  {
    "COMPOUND": "COc1cc2nccc(Oc3ccc(NC(=S)NC(=O)c4ccccc4)cc3Cl)c2cc1OC [Example 918]",
    "ASSAY METRIC": "IC50",
    "MEAS VALUE": 552
  },
  {
    "COMPOUND": "COc1cc2nccc(Oc3ccc(NCCCOc4ccccc4Cl)cc3)c2cc1OC [Example 891]",
    "ASSAY METRIC": "IC50",
    "MEAS VALUE": 280
  },
  {
    "COMPOUND": "COc1cc2nccc(Oc3ccc(NCCOc4ccc(C)cc4)cc3)c2cc1OC [Example 870]",
    "ASSAY METRIC": "IC50",
    "MEAS VALUE": 48
  },
  {
    "COMPOUND": "COc1cc2nccc(Oc3ccc(NC(=S)NC(=O)CCSC)cc3F)c2cc1OC [Example 1069]",
    "ASSAY METRIC": "IC50",
    "MEAS VALUE": 189
  },
  {
    "COMPOUND": "COc1cc2nccc(Oc3ccc(NC(=S)NC(=O)C4CCCCC4)cc3Cl)c2cc1OC [Example 1179]",
    "ASSAY METRIC": "IC50",
    "MEAS VALUE": 327
  },
  {
    "COMPOUND": "COc1cc2nccc(Oc3ccc(NC(=S)NC(=O)c4cccc(Br)c4)c(F)c3)c2cc1OC [Example 940]",
    "ASSAY METRIC": "IC50",
    "MEAS VALUE": 292
  },
  {
    "COMPOUND": "COc1cc2nccc(Oc3ccc(NCCOc4ccc(Cl)cc4)cc3)c2cc1OC [Example 859]",
    "ASSAY METRIC": "IC50",
    "MEAS VALUE": 130
  },
  {
    "COMPOUND": "COc1cc2ncnc(Oc3ccc(NC(=S)NC(=O)C4CCCCC4)cc3)c2cc1OC [Example 1180]",
    "ASSAY METRIC": "IC50",
    "MEAS VALUE": 480
  }
]

(A) COc1cc2ncnc(Oc3ccc(NC(=S)NC(=O)c4cccc(Cl)c4)cc3)c2cc1OC [Example 955]
(B) COc1cc2nccc(Oc3ccc(NCCOc4cccc(C)c4)cc3C)c2cc1OC [Example 878]
(C) COc1cc2nccc(Oc3ccc(NC(=S)NC(=O)N4CCc5ccccc5C4)cc3)c2cc1OC [Example 1130]
Ask: # rank_down: sort by IC50, max first Please list the labels in the order you were asked to rank them.
Result: C, A, B
(C: 547 nM, A: 251 nM, B: 65 nM)

(1) COc1cc2nccc(Oc3ccc(SCCOc4ccc(F)cc4)cc3)c2cc1OC [Example 824]
(2) COc1cc2nccc(Oc3ccc(NC(=S)NC(=O)c4ccccc4Cl)cc3F)c2cc1OC [Example 913]
Ask: For 1 and 2 , which recorded IC50 is lower? Field: selected label. Fill in the label of the entry you choose.
Result: 1
(1: 268 nM, 2: 563 nM)

(I) COc1ccccc1CCC(=O)NC(=S)Nc1ccc(Oc2ccnc3cc(OC)c(OC)cc23)cc1 [Example 1025]
(II) COc1cc2nccc(Oc3ccc(NCCOc4c(F)cccc4F)cc3C)c2cc1OC [Example 883]
Ask: Lower value of IC50 belongs to which: I or II ? Give the label under which the chosen entry appears.
Result: I
(I: 194 nM, II: 521 nM)
